# protocol-details: Stability of ratio of the mixture of desloratadine polymorphic forms on storage (XRPD)
# Type: physicochemical
# assay-context: 25° C., 60% RH; 0 week
quantity-name: Form 1 (%)

[in] I have this molecule here, Clc1ccc2c(c1)CCc1cccnc1C2=C1CCNCC1 [Example 4 of Stability Tests, desloratadine] , and I need its recorded Form 1 (%).
[out] 76%

[in] I have this molecule here, Clc1ccc2c(c1)CCc1cccnc1C2=C1CCNCC1 [Example 2 of Stability Tests, desloratadine] , and I need its recorded Form 1 (%).
[out] 62%

[in] I have this molecule here, Clc1ccc2c(c1)CCc1cccnc1C2=C1CCNCC1 [Example 3 of Stability Tests, desloratadine] , and I need its recorded Form 1 (%).
[out] 74%

[in] I have this molecule here, Clc1ccc2c(c1)CCc1cccnc1C2=C1CCNCC1 [Example 1 of Stability Tests, desloratadine] , and I need its recorded Form 1 (%).
[out] 57%

---

# protocol-details: Stability of ratio of the mixture of desloratadine polymorphic forms on storage (XRPD)
# Format: physicochemical
# assay-context: 40° C., 75% RH; 1 week
Task for the reader: assign each of the following molecules its reported Form 1 (%).
Please give a number only; it is taken to be in %.

[in] I have this molecule here, Clc1ccc2c(c1)CCc1cccnc1C2=C1CCNCC1 [Example 3 of Stability Tests, desloratadine] , and I need its recorded Form 1 (%).
[out] 77

[in] I have this molecule here, Clc1ccc2c(c1)CCc1cccnc1C2=C1CCNCC1 [Example 4 of Stability Tests, desloratadine] , and I need its recorded Form 1 (%).
[out] 76

[in] I have this molecule here, Clc1ccc2c(c1)CCc1cccnc1C2=C1CCNCC1 [Example 2 of Stability Tests, desloratadine] , and I need its recorded Form 1 (%).
[out] 63

[in] I have this molecule here, Clc1ccc2c(c1)CCc1cccnc1C2=C1CCNCC1 [Example 1 of Stability Tests, desloratadine] , and I need its recorded Form 1 (%).
[out] 46

---

# protocol-details: Stability of ratio of the mixture of desloratadine polymorphic forms on storage (XRPD)
# Assay type: physicochemical
# assay-context: 25° C., 60% RH; 3 months (12 weeks)
Task for the reader: assign each of the following compounds its reported Form 1 (%).
Please give a number only; it is taken to be in %.

[in] I have this compound here, Clc1ccc2c(c1)CCc1cccnc1C2=C1CCNCC1 [Example 3 of Stability Tests, desloratadine] , and I need its recorded Form 1 (%).
[out] 74

[in] I have this compound here, Clc1ccc2c(c1)CCc1cccnc1C2=C1CCNCC1 [Example 2 of Stability Tests, desloratadine] , and I need its recorded Form 1 (%).
[out] 66

[in] I have this compound here, Clc1ccc2c(c1)CCc1cccnc1C2=C1CCNCC1 [Example 1 of Stability Tests, desloratadine] , and I need its recorded Form 1 (%).
[out] 52

[in] I have this compound here, Clc1ccc2c(c1)CCc1cccnc1C2=C1CCNCC1 [Example 4 of Stability Tests, desloratadine] , and I need its recorded Form 1 (%).
[out] 81

---

# protocol-details: Stability of ratio of the mixture of desloratadine polymorphic forms on storage (XRPD)
# Type: physicochemical
# assay-context: 25° C., 60% RH; 1 month (4 weeks)
quantity-name: Form 1 (%)
Please give a number only; it is taken to be in %.

[in] I have this molecule here, Clc1ccc2c(c1)CCc1cccnc1C2=C1CCNCC1 [Example 3 of Stability Tests, desloratadine] , and I need its recorded Form 1 (%).
[out] 79

[in] I have this molecule here, Clc1ccc2c(c1)CCc1cccnc1C2=C1CCNCC1 [Example 1 of Stability Tests, desloratadine] , and I need its recorded Form 1 (%).
[out] 55

[in] I have this molecule here, Clc1ccc2c(c1)CCc1cccnc1C2=C1CCNCC1 [Example 4 of Stability Tests, desloratadine] , and I need its recorded Form 1 (%).
[out] 82

[in] I have this molecule here, Clc1ccc2c(c1)CCc1cccnc1C2=C1CCNCC1 [Example 2 of Stability Tests, desloratadine] , and I need its recorded Form 1 (%).
[out] 66

---

# protocol-details: Stability of ratio of the mixture of desloratadine polymorphic forms on storage (XRPD)
# Format: physicochemical
# assay-context: 40° C., 75% RH; 2 months (8 weeks)
quantity-name: Form 2 (%)
Please give a number only; it is taken to be in %.

[in] I have this compound here, Clc1ccc2c(c1)CCc1cccnc1C2=C1CCNCC1 [Example 2 of Stability Tests, desloratadine] , and I need its recorded Form 2 (%).
[out] 35

[in] I have this compound here, Clc1ccc2c(c1)CCc1cccnc1C2=C1CCNCC1 [Example 3 of Stability Tests, desloratadine] , and I need its recorded Form 2 (%).
[out] 22

[in] I have this compound here, Clc1ccc2c(c1)CCc1cccnc1C2=C1CCNCC1 [Example 1 of Stability Tests, desloratadine] , and I need its recorded Form 2 (%).
[out] 61

[in] I have this compound here, Clc1ccc2c(c1)CCc1cccnc1C2=C1CCNCC1 [Example 4 of Stability Tests, desloratadine] , and I need its recorded Form 2 (%).
[out] 15

---

# protocol-details: Stability of ratio of the mixture of desloratadine polymorphic forms on storage (XRPD)
# Format: physicochemical
# assay-context: 40° C., 75% RH; 1 week
quantity-name: Form 2 (%)

[in] I have this molecule here, Clc1ccc2c(c1)CCc1cccnc1C2=C1CCNCC1 [Example 2 of Stability Tests, desloratadine] , and I need its recorded Form 2 (%).
[out] 37%

[in] I have this molecule here, Clc1ccc2c(c1)CCc1cccnc1C2=C1CCNCC1 [Example 3 of Stability Tests, desloratadine] , and I need its recorded Form 2 (%).
[out] 23%

[in] I have this molecule here, Clc1ccc2c(c1)CCc1cccnc1C2=C1CCNCC1 [Example 4 of Stability Tests, desloratadine] , and I need its recorded Form 2 (%).
[out] 24%

[in] I have this molecule here, Clc1ccc2c(c1)CCc1cccnc1C2=C1CCNCC1 [Example 1 of Stability Tests, desloratadine] , and I need its recorded Form 2 (%).
[out] 54%

---

Task for the reader: assign each of the following molecules its reported Form 2 (%).
# protocol-details: Stability of ratio of the mixture of desloratadine polymorphic forms on storage (XRPD)
# Format: physicochemical
# assay-context: 25° C., 60% RH; 0 week
Please give a number only; it is taken to be in %.

[in] I have this molecule here, Clc1ccc2c(c1)CCc1cccnc1C2=C1CCNCC1 [Example 1 of Stability Tests, desloratadine] , and I need its recorded Form 2 (%).
[out] 43

[in] I have this molecule here, Clc1ccc2c(c1)CCc1cccnc1C2=C1CCNCC1 [Example 2 of Stability Tests, desloratadine] , and I need its recorded Form 2 (%).
[out] 38

[in] I have this molecule here, Clc1ccc2c(c1)CCc1cccnc1C2=C1CCNCC1 [Example 4 of Stability Tests, desloratadine] , and I need its recorded Form 2 (%).
[out] 24

[in] I have this molecule here, Clc1ccc2c(c1)CCc1cccnc1C2=C1CCNCC1 [Example 3 of Stability Tests, desloratadine] , and I need its recorded Form 2 (%).
[out] 26

---

# protocol-details: Stability of ratio of the mixture of desloratadine polymorphic forms on storage (XRPD)
# Type: physicochemical
# assay-context: 40° C., 75% RH; 1 month (4 weeks)
Task for the reader: assign each of the following molecules its reported Form 1 (%).

[in] I have this molecule here, Clc1ccc2c(c1)CCc1cccnc1C2=C1CCNCC1 [Example 3 of Stability Tests, desloratadine] , and I need its recorded Form 1 (%).
[out] 78%

[in] I have this molecule here, Clc1ccc2c(c1)CCc1cccnc1C2=C1CCNCC1 [Example 1 of Stability Tests, desloratadine] , and I need its recorded Form 1 (%).
[out] 50%

[in] I have this molecule here, Clc1ccc2c(c1)CCc1cccnc1C2=C1CCNCC1 [Example 4 of Stability Tests, desloratadine] , and I need its recorded Form 1 (%).
[out] 88%

[in] I have this molecule here, Clc1ccc2c(c1)CCc1cccnc1C2=C1CCNCC1 [Example 2 of Stability Tests, desloratadine] , and I need its recorded Form 1 (%).
[out] 65%

---

Task for the reader: assign each of the following molecules its reported Form 2 (%).
# protocol-details: Stability of ratio of the mixture of desloratadine polymorphic forms on storage (XRPD)
# Assay type: physicochemical
# assay-context: 25° C., 60% RH; 3 months (12 weeks)

[in] I have this molecule here, Clc1ccc2c(c1)CCc1cccnc1C2=C1CCNCC1 [Example 4 of Stability Tests, desloratadine] , and I need its recorded Form 2 (%).
[out] 19%

[in] I have this molecule here, Clc1ccc2c(c1)CCc1cccnc1C2=C1CCNCC1 [Example 2 of Stability Tests, desloratadine] , and I need its recorded Form 2 (%).
[out] 34%

[in] I have this molecule here, Clc1ccc2c(c1)CCc1cccnc1C2=C1CCNCC1 [Example 1 of Stability Tests, desloratadine] , and I need its recorded Form 2 (%).
[out] 48%

[in] I have this molecule here, Clc1ccc2c(c1)CCc1cccnc1C2=C1CCNCC1 [Example 3 of Stability Tests, desloratadine] , and I need its recorded Form 2 (%).
[out] 26%

Where do the numbers come from? From patent US20060223841A1.
